- tested on: T1, rhTrkB-ECD (R&D #397-TR/CF) (human, UniProt Q16620 32-430)
- T1 construct: extracellular domain; Bought protein; also called human TrkB-extracellular domain protein; human TrkB ectodomain protein
- T1 sequence (Q16620 32-430): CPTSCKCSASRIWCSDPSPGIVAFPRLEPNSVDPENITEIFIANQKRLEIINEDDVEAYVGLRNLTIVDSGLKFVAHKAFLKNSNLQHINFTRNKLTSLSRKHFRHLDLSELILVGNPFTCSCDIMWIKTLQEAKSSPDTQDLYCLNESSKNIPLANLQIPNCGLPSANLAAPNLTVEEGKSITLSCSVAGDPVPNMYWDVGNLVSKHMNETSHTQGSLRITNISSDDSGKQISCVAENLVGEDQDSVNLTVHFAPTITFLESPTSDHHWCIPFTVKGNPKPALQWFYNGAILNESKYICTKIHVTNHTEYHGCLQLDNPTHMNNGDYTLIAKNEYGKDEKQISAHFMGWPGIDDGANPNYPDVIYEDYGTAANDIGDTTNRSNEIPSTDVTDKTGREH
- experimental details: competition ELISA on coated rhTrkB-ECD; competitor biotinylated chimeric TOA-1 at 25 ng/ml
Exercise: state measured IC50 for each of the binders provided.

TOA-1 variant VH human v2.0 / VL human v1.1 (antibody, V domains shown, Human IgG; constant regions not restated; also called hu v2.0 / hu v1.1) VH: EVQLVQSGAEVKKPGATVKISCKVSGYSFTAYFMNWVQQAPGKGLEWMGRINPNNGDTFYTQKFKGRVTITADTSTDTAYMELSSLRSEDTAVYYCATRDYFGAMDYWGQGTLVTVSS VL: DIQMTQSPSSLSASVGDRVTITCRASQTISNNLHWYQQKPGESPKLLIKSASLAISGVPSRFSGSGSGTDFTLTISSLQPEDFATYYCQQSNSWPNTFGGGTKVEIK; ~87.6 nM
TOA-1 variant VH human v2.0 / VL human v1.0 (antibody, V domains shown, Human IgG; constant regions not restated; also called hu v2.0 / hu v1.0) VH: EVQLVQSGAEVKKPGATVKISCKVSGYSFTAYFMNWVQQAPGKGLEWMGRINPNNGDTFYTQKFKGRVTITADTSTDTAYMELSSLRSEDTAVYYCATRDYFGAMDYWGQGTLVTVSS VL: DIQMTQSPSSLSASVGDRVTITCRASQTISNNLHWYQQKPGKAPKLLIYSASLAISGVPSRFSGSGSGTDFTLTISSLQPEDFATYYCQQSNSWPNTFGGGTKVEIK; ~126 nM

Ask | Quick one: IC50 of huTOA-1 v1.0/2.0 (antibody, V domains shown, Human IgG; constant regions not restated; also called VH human v1.0 / VL human v2.0) VH: EVQLVESGGGLVQPGGSLRLSCAASGYSFTAYFMNWVRQAPGKGLEWVARINPNNGDTFYTQKFKGRFTISRDNAKNSLYLQMNSLRAEDTAVYYCARRDYFGAMDYWGQGTLVTVSS VL: EIVMTQSPATLSVSPGERATLSCRASQTISNNLHWYQQKPGQAPRLLIYSASLAISGIPARFSGSGSGTEFTLTISSLQSEDFAVYYCQQSNSWPNTFGGGTKVEIK ?
Reply | 5.9 nM
